biological target: vitronectin receptor, αvβ3 (Homo sapiens, UniProt P05106+P06756); construct: After purification, the receptors were each stored in 0.1% Triton X-100 at 0.1-1.0 mg/ml; from tissue; experiment: αvβ3 ELISA purified integrin binding assay (vitronectin binding); conditions: inhibition of biotinylated vitronectin binding to immobilized purified αvβ3
Sequence (P06756 31-889 limits assumed): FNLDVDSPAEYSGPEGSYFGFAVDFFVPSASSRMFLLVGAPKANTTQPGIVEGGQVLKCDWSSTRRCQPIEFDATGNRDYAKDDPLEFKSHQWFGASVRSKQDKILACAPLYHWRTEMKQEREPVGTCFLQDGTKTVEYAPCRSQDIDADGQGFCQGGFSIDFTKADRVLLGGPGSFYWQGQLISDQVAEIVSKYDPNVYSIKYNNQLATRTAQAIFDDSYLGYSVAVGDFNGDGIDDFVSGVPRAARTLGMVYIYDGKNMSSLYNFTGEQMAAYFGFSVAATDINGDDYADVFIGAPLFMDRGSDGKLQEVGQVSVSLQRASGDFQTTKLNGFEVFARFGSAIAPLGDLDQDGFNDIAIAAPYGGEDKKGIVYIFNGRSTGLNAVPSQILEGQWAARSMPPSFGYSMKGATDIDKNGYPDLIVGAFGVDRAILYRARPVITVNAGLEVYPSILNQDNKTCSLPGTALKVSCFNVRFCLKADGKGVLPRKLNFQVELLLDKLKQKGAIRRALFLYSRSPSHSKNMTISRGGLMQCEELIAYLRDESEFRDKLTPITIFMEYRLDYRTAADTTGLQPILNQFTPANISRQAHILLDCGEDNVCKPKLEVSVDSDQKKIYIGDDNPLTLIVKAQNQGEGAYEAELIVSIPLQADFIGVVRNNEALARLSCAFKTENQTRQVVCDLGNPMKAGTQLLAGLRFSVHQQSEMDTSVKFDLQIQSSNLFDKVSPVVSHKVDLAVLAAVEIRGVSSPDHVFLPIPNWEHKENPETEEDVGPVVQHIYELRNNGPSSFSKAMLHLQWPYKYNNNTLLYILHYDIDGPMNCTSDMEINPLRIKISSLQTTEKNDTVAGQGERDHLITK
Sequence (P06756 891-1048 partner limits assumed): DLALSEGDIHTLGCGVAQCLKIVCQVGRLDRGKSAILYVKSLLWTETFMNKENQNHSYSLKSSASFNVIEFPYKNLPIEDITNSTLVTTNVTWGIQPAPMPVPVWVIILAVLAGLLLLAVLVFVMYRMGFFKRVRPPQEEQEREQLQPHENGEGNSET
Sequence (P05106 27-788): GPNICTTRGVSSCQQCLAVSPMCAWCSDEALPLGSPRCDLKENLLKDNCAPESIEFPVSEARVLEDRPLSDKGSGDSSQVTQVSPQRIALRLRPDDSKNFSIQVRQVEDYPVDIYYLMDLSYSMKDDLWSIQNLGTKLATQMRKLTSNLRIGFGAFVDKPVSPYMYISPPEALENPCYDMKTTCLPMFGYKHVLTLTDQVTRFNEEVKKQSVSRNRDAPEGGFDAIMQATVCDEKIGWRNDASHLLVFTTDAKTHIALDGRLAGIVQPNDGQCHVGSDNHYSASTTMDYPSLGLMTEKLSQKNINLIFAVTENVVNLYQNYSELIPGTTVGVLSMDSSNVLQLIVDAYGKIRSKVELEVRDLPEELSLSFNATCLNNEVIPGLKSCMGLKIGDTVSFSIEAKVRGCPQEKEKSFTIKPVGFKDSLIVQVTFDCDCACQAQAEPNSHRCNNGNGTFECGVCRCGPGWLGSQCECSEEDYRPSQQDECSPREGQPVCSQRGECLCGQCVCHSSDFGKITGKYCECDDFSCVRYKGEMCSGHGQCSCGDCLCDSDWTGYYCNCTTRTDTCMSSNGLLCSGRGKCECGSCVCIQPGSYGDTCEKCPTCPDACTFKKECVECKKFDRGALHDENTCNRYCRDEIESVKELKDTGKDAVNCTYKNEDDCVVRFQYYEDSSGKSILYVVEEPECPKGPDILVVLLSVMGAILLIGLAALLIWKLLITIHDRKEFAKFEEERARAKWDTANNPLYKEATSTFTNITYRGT
endpoint_name: IC50

stdin: Which IC50 reading was recorded for the molecule O=C(CNC(=O)C1CCNCC1)NCC(NS(=O)(=O)c1ccccc1)C(=O)O (stereo not shown) ?
stdout: > 100 µM

###

biological target: GPIIb-IIIa (Homo sapiens, UniProt P05106+P08514); construct: Purified platelet GPIIb-IIIa was prepared by Fitzgerald, L. A., et al; from tissue; host or cells: platelets; test: GPIIb-IIIa ELISA purified integrin binding assay (fibrinogen binding); details: inhibition of biotinylated fibrinogen binding to immobilized purified platelet GPIIb-IIIa; read-out: GPIIbIIIa ELISA (IC50 μM)
Sequence (P08514 32-887 limits assumed, one chain of several): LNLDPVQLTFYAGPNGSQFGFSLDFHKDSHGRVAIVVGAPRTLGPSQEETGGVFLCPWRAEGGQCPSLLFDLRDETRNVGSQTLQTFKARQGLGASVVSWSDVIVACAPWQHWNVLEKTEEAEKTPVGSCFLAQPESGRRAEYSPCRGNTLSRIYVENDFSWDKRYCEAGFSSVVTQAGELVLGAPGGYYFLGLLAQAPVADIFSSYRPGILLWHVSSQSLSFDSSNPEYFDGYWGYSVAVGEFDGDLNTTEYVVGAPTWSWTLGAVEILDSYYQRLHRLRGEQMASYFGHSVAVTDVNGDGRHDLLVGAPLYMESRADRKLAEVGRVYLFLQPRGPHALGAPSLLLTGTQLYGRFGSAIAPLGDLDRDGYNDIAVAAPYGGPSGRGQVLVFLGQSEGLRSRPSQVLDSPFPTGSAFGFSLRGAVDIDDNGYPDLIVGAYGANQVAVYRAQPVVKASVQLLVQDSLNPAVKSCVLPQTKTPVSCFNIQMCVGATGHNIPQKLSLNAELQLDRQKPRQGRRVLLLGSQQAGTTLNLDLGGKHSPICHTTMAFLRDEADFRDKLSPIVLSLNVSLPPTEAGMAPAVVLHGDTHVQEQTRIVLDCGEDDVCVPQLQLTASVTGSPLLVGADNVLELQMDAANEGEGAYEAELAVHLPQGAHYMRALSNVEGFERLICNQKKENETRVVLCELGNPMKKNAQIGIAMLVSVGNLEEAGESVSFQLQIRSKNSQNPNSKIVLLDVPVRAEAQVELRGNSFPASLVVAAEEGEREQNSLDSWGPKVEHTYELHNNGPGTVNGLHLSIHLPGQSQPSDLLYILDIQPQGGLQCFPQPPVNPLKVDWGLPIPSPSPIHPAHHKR
Sequence (P08514 891-1039 partner limits assumed, one chain of several): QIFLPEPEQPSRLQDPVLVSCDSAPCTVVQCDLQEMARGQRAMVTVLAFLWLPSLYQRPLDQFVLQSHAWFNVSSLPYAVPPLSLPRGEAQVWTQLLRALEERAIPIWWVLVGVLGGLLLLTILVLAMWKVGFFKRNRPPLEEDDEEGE
endpoint_name: IC50 (µM)
I only need the number, in µM, no unit after it.

stdin: Which IC50 reading was recorded for the compound O=C(CNC(=O)C1CCNCC1)NCC(NS(=O)(=O)c1ccccc1)C(=O)O (stereo not shown) [Compound 16] ?
stdout: 5
